# ASSAY SUMMARY: Oral plasma levels of oxycodone conjugates in rats, ELISA
# ASSAY SETUP: oral 2 mg/kg

>  <MOLECULE>
COc1ccc2c3c1O[C@H]1C(OC(=O)[C@@H](NC(=O)[C@H](Cc4ccc(O)cc4)NC(=O)[C@@H](N)CCC(=O)O)C(C)C)=CC[C@@]4(OC(=O)[C@@H](NC(=O)[C@H](Cc5ccc(O)cc5)NC(=O)[C@@H](N)CCC(=O)O)C(C)C)[C@@H](C2)N(C)CC[C@]314 [[Glu-Tyr-Val]2-OC]

>  <% Cmax (%)>
103

$$$$
>  <MOLECULE>
COc1ccc2c3c1O[C@H]1C(OC(=O)[C@@H](NC(=O)[C@H](Cc4ccc(O)cc4)NC(=O)CN)C(C)C)=CC[C@@]4(OC(=O)[C@@H](NC(=O)[C@H](Cc5ccc(O)cc5)NC(=O)CN)C(C)C)[C@@H](C2)N(C)CC[C@]314 [[Gly-Tyr-Val]2-OC]

>  <% Cmax (%)>
99

$$$$
>  <MOLECULE>
CC[C@H](C)[C@H](N)C(=O)N[C@@H](Cc1ccc(O)cc1)C(=O)N[C@H](C(=O)OC1=CC[C@@]2(OC(=O)[C@@H](NC(=O)[C@H](Cc3ccc(O)cc3)NC(=O)[C@@H](N)[C@@H](C)CC)C(C)C)[C@H]3Cc4ccc(OC)c5c4[C@@]2(CCN3C)[C@H]1O5)C(C)C [[Ile-Tyr-Val]2-OC]

>  <% Cmax (%)>
82

$$$$
>  <MOLECULE>
COc1ccc2c3c1O[C@H]1C(OC(=O)[C@@H](NC(=O)[C@@H]4CCCN4C(=O)[C@@H](N)CCC(=O)O)C(C)C)=CC[C@@]4(OC(=O)[C@@H](NC(=O)[C@@H]5CCCN5C(=O)[C@@H](N)CCC(=O)O)C(C)C)[C@@H](C2)N(C)CC[C@]314 [[Glu-Pro-Val]2-OC]

>  <% Cmax (%)>
134

$$$$
>  <MOLECULE>
COc1ccc2c3c1O[C@H]1C(OC(=O)[C@@H](NC(=O)CNC(=O)[C@@H](N)CO)C(C)C)=CC[C@@]4(OC(=O)[C@@H](NC(=O)CNC(=O)[C@@H](N)CO)C(C)C)[C@@H](C2)N(C)CC[C@]314 [[Ser-Gly-Val]2-OC]

>  <% Cmax (%)>
92

$$$$
>  <MOLECULE>
COc1ccc2c3c1O[C@H]1C(OC(=O)[C@@H](NC(=O)[C@H](CCC(=O)O)NC(=O)[C@@H]4CCCN4)C(C)C)=CC[C@@]4(OC(=O)[C@@H](NC(=O)[C@H](CCC(=O)O)NC(=O)[C@@H]5CCCN5)C(C)C)[C@@H](C2)N(C)CC[C@]314 [[Pro-Glu-Val]2-OC]

>  <% Cmax (%)>
82

$$$$
>  <MOLECULE>
COc1ccc2c3c1O[C@H]1C(OC(=O)[C@@H](NC(=O)[C@H](CCC(=O)O)NC(=O)CN)C(C)C)=CC[C@@]4(OC(=O)[C@@H](NC(=O)[C@H](CCC(=O)O)NC(=O)CN)C(C)C)[C@@H](C2)N(C)CC[C@]314 [[Gly-Glu-Val]2-OC]

>  <% Cmax (%)>
61

$$$$
>  <MOLECULE>
COc1ccc2c3c1O[C@H]1C(OC(=O)[C@@H](NC(=O)[C@H](Cc4ccc(O)cc4)NC(=O)[C@@H](N)CC(C)C)C(C)C)=CC[C@@]4(OC(=O)[C@@H](NC(=O)[C@H](Cc5ccc(O)cc5)NC(=O)[C@@H](N)CC(C)C)C(C)C)[C@@H](C2)N(C)CC[C@]314 [[Leu-Tyr-Val]2-OC]

>  <% Cmax (%)>
120

$$$$
